All values here come from paper PMC3139429.

Biological target: MyrMA (myristoylated matrix) (HIV-1, UniProt P12493 2-132)
Experiment: fluorescence anisotropy

BINDER	Kd (nM)
GGACAGGAAUUAAUAGUAGCUGUCC (structured_RNA) [FITC-Sel25]	813
